Provenance of the data: patent US20250011410A1

Record form. Attribute: kon. Fill in for each entry.
target-under-test: T1, canine NGF tagged at the C-terminus with the Flag tag (canine, UniProt A0A8I3PYI3 122-241)
T1 construct: mature; Expressed with baculovirus technology; also called feline NGF (processed form identical)
T1 sequence (A0A8I3PYI3 entry or part of it): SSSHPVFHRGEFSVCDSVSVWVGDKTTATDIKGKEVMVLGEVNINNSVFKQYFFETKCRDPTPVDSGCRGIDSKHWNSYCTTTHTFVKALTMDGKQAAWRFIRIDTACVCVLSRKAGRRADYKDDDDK
experiment-description: SPR, IgG amine-coupled to HC30M chip, NGF analyte
Numbers only, in M⁻¹ s⁻¹.

Known kon results, listed for orientation:
>>> endpoint_result("felinized clone 101 (IgG) (antibody, V domains shown) VH: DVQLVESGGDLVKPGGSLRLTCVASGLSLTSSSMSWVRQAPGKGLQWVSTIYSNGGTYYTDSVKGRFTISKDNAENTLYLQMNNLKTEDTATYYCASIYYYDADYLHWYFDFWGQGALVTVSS VL: EIQMTQSPTSLSASVGDRVTITCRASEGISNNLSWYQQTPGKAPKLLIYATSNLHSGVPSRFSGSGSGTDFTLTISSLQPEDFATYYCQQGYKWPLTFGGGTKLEIT")
110000
>>> endpoint_result("SC-184_110 (antibody, IgG1a, V domains shown) VH: DVQLVESGGDLVKPGGSLRLTCVASGLSLTSASMSWVRQAPGKGLQWVSTIYSNGGTYYTDSVKGRFTISKDNAENTLYLQMNNLKTEDTATYYCASIYYYEAEYLHWYFDFWGQGALVTVSS VL: EIQMTQSPTSLSASVGDRVTITCRASEGISKNLSWYQQTPGKAPKLLIYATDNLHSGVPSRFSGSGSGTDFTLTISSLQPEDFATYYCQQGWKWPLTFGGGTKLEIT")
160000
>>> endpoint_result("SC-184_76 (antibody, IgG1a, V domains shown) VH: DVQLVESGGDLVKPGGSLRLTCVASGLSLTSDSMSWVRQAPGKGLQWVSTLWSNGGTYYTDSVKGRFTISKDNAENTLYLQMNNLKTEDTATYYCASIYYYEADYLHWYFDFWGQGALVTVSS VL: EIQMTQSPTSLSASVGDRVTITCRASEGIANNLSWYQQTPGKAPKLLIYATSNLHSGVPSRFSGSGSGTDFTLTISSLQPEDFATYYCQQGFKWPLTFGGGTKLEIT")
270000

Turning now to a further binder:
Record summary for SC-184_102 (antibody, IgG1a, V domains shown) VH: DVQLVESGGDLVKPGGSLRLTCVASGLSLTSNSMSWVRQAPGKGLQWVSTIWSNGGTYYTDSVKGRFTISKDNAENTLYLQMNNLKTEDTATYYCASIYYYEAEYLHWYFDFWGQGALVTVSS VL: EIQMTQSPTSLSASVGDRVTITCRASKGISNNLSWYQQTPGKAPKLLIYAQSNLHSGVPSRFSGSGSGTDFTLTISSLQPEDFATYYCQQGYKWPLTFGGGTKLEIT : reported kon = 210000
